Record form. Attribute: GI50. Fill in for each entry.
# Tested on: ACHN
# protocol-notes: NCI tumour cell line growth inhibition, 48 h
Activity calls are given as the source filed them. Rule as the data show it: active = GI50 up to about 1.1 µM and inactive = higher.

Some compounds with recorded GI50:
> print(dat)
                                   compound  value.type          test.result
1  Cc1cc(Cl)ccc1N1C(=O)C(=O)C(c2nc3ccccc3s2)/C(=N\NC(=O)c2ccccc2O)C1=O (configuration not stated)        GI50  > 100 µM (inactive)
2         S=C=Nc1ccc(CSc2nc3ccccc3[nH]2)cc1        GI50   14.3 µM (inactive)
3  Clc1ccccc1/C=c1\nc(-c2ccccc2)n2c1nc1ccccc12        GI50  > 100 µM (inactive)

Look up GI50 for the entries below, preserving their order.
1. CC(C)(C)C(=O)O[C@H]1C=C[C@@H](O)[C@@H]2[C@H]1[C@@H]1C=C[C@H]2C1
2. COC1CC(OS(=O)(=O)c2ccc(C)cc2)C(OS(=O)(=O)c2ccc(C)cc2)C(COS(=O)(=O)c2ccc(C)cc2)O1 (configuration not stated)
3. COc1ccc(/N=C/C=C/Nc2ccc(OC)cc2)cc1
4. O=[N+]([O-])c1cc2c(cc1O)[nH]c1cccc([N+](=O)[O-])c12

A)
45.4 µM (inactive)
2.9 µM (inactive)
15.6 µM (inactive)
> 100 µM (inactive)

###

# Tested on: NCI-H522
# protocol-notes: NCI tumour cell line growth inhibition, 48 h
Activity calls are given as the source filed them. Cut-off read from the data, not from the text of the source: active = GI50 up to about 1.1 µM and inactive = higher.
value-type: GI50

> print(dat)
                                   compound          test.result
1  Cn1c(=O)c2c(nc3n(Cc4ccccc4)c(=O)c(NCCCBr)cn23)n(C)c1=O   54.3 µM (inactive)
2          O=C(O)CNC(=O)c1ccc(-c2ccccc2)cc1  > 100 µM (inactive)
3                     CN(C)c1nc(N)nc(CCl)n1   10.9 µM (inactive)

Hello, I would appreciate it if you could give GI50 for each entry below.
1. CCc1ccccc1NC(=O)C(C#N)C1=C(Cl)C(=O)c2ccccc2C1=O (centres undefined)
2. Cc1ccc2c(c1)C1(C)OC(CC(N)C1O)O2 (centres undefined)
3. Cc1c(C)c(S(=O)(=O)N(CCCCCN)OCCCN)c(C)c2c1OC(C)(C)CC2
4. O=S(=O)(O)CS(=O)(=O)OCCCl
5. CCCOC(=O)C1CCC(=O)N1C(=O)C(Cl)Cl (centres undefined)
6. CCOC(=O)c1cc2c(OC(C)=O)ccc(OC(C)=O)c2s1
7. C#CC(=O)OCC#CCOC(=O)C#C

A)
1. 13.5 µM (inactive)
2. > 100 µM (inactive)
3. 6.28 µM (inactive)
4. > 100 µM (inactive)
5. > 100 µM (inactive)
6. 0.301 µM (active)
7. 3.23 µM (inactive)

###

# System: T47D
# protocol-notes: NCI tumour cell line growth inhibition, 48 h
Activity calls are given as the source filed them. No stated cut-off is given here; in the data, active = GI50 up to about 1.1 µM and inactive = higher.
value-type: GI50

molecule	measurement-target	test-result
COc1ccc2c(c1)OCC1Cc3cccc(OC)c3OC21 (centres undefined)	T47D	30.1 µM (inactive)
CN1N=C(c2ccncc2)OC1c1ccc(Cl)c(Cl)c1 (centres undefined)	T47D	> 100 µM (inactive)
CCOC(=O)c1cc2c(OC(C)=O)ccc(OC(C)=O)c2s1	T47D	1.48 µM (inactive)
Nc1nc(-c2ccccc2)c(CC(=O)O)s1	T47D	> 100 µM (inactive)
CCCCCCCCCCCC(=O)Oc1c(Cl)cc(Cl)c(OC(=O)C(=O)Oc2c(Cl)cc(Cl)c(OC(=O)CCCCCCCCCCC)c2Cl)c1Cl	T47D	> 100 µM (inactive)

Return reported GI50 values for all items listed beneath this line.
1. CC(=O)Oc1ccc2[nH]c3c(C)c4cccc-4ccc3c2c1
2. C=CCOC(=O)CCCCCCCCCCCCCCCOC(=O)C1=C(CCC[C@@H](C)O[Si](C)(C)C(C)(C)C)N=C(N)N2[C@H](CC3(CC/C=C\[C@H](CC)O[Si](C(C)C)(C(C)C)C(C)C)OCCO3)CC[C@@H]12
3. CSCCC(NOC(=O)Cc1ccccc1)P(=O)(O)c1ccccc1 (centres undefined)

A)
1: 2.43 µM (inactive); 2: > 100 µM (inactive); 3: > 100 µM (inactive)

Q) Can you share its GI50? I mean this molecule: CC(=O)OCC1OC(SC2=N/C(=C\c3cc4c(=O)c5ccccc5sc4s3)C(=O)N2c2ccccc2)C(OC(C)=O)C(OC(C)=O)C1OC(C)=O (centres undefined)
A) > 100 µM (inactive)

Cited source for all entries: ChEMBL document CHEMBL1201862
